target: sodium-proton exchanger of subtype 3 (NHE3) (Homo sapiens, UniProt P48764); construct: expressed in transfected cells; test: Recovery of intracellular pH (pHi) after acidification in LAP1 cells stably expressing NHE3 (BCECF fluorescence, FLIPR); assay type: cell-based; conditions: LAP1 cells stably expressing NHE3; pH recovery after acidification; range 1 is % inhibition at 10 μM; read-out: Activity range (inhibitory effect on NHE3)
Sequence (P48764 26-834, species assumed): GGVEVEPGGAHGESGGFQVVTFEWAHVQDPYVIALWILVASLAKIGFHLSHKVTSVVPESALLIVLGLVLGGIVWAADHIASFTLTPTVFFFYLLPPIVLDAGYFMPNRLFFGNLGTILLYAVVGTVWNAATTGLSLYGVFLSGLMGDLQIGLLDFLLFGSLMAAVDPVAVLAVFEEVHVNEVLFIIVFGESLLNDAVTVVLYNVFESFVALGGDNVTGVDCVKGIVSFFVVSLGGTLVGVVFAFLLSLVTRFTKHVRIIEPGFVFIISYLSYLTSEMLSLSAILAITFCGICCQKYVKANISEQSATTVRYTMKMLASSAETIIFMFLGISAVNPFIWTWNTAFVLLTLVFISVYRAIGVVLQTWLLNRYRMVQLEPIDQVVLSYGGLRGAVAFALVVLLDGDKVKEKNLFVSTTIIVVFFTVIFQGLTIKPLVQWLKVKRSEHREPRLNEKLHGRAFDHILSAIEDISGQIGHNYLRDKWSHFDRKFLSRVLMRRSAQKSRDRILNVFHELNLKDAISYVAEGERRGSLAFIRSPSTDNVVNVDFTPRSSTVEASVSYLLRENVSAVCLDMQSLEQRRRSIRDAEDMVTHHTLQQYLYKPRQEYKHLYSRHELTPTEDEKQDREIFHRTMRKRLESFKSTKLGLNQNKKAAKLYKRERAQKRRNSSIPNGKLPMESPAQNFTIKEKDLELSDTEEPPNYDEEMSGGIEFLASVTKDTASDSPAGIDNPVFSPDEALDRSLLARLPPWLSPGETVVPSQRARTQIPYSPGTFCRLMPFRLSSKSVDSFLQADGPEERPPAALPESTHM
Please go through the items and note down their IC50.

Note to self: IC50 recorded for Cc1nnc(C)n1-c1ccc(O[C@H]2c3cc(Cl)cc(Cl)c3C[C@@H]2N2CCCC2)cc1 was < 1 µM

Note to self: IC50 recorded for NCC1CCN([C@@H]2Cc3ccccc3[C@H]2Oc2ccc3[nH]cc(CC(N)=O)c3c2)C1 (mixture of isomers) was 1 to 10 µM

Note to self: IC50 recorded for CCN(CC)[C@@H]1Cc2ccccc2[C@H]1Oc1cccc(NC(N)=O)c1 (racemic) was 1 to 10 µM

Note to self: IC50 recorded for NS(=O)(=O)c1ccc(O[C@H]2c3cc(Cl)cc(Cl)c3C[C@@H]2N2CC[C@@H](O)C2)cc1 was < 1 µM

Note to self: IC50 recorded for Clc1cc(Cl)c2c(c1)[C@H](Oc1cccc(-n3cnnn3)c1)[C@@H](N1CCNCC1)C2 was < 1 µM

Note to self: IC50 recorded for COc1cc(Cl)cc(O[C@H]2c3ccccc3CC[C@@H]2N2CCC[C@H](N)C2)c1 (racemic) was 1 to 10 µM

Note to self: IC50 recorded for NCC1CCN([C@@H]2Cc3ccccc3[C@H]2Oc2cccc(N3CCNCC3)c2)C1 (mixture of isomers) was 1 to 10 µM

Note to self: IC50 recorded for CS(=O)(=O)c1ccc(O[C@H]2c3cc(Cl)cc(Cl)c3C[C@@H]2N2CC[C@H](N)C2)cc1 was < 1 µM

Note to self: IC50 recorded for Cc1nnc(C)n1-c1ccc(O[C@H]2c3cc(F)cc(F)c3C[C@@H]2N2CC[C@@H](O)C2)c(F)c1 was < 1 µM

Note to self: IC50 recorded for NCC1CCN([C@@H]2Cc3ccccc3[C@H]2Oc2cccc3[nH]ccc23)C1 (mixture of isomers) was 1 to 10 µM

Note to self: IC50 recorded for NC(=O)Nc1cccc(O[C@@H]2c3ccccc3C[C@H]2N2CCC[C@H](N)C2)c1 (racemic) was 1 to 10 µM

Note to self: IC50 recorded for CN(C1CCNCC1)[C@@H]1Cc2ccccc2[C@H]1Oc1ccc(N2CCNCC2)cc1 (racemic) was 1 to 10 µM

Note to self: IC50 recorded for COc1cc(Cl)cc(O[C@@H]2c3ccccc3C[C@H]2N2CCC(CN)C2)c1 (mixture of isomers) was 1 to 10 µM

Note to self: IC50 recorded for CCN(CC)[C@@H]1Cc2ccccc2[C@H]1Oc1cccc(N2CCNCC2)c1 (racemic) was 1 to 10 µM

Note to self: IC50 recorded for CC(=O)Nc1cccc(O[C@H]2c3cc(Cl)cc(Cl)c3C[C@@H]2N2CCCC2)c1 (racemic) was 1 to 10 µM

---

target: sodium-proton exchanger of subtype 3 (NHE3) (Homo sapiens); construct: expressed in transfected cells; assay: Recovery of intracellular pH (pHi) after acidification in LAP1 cells stably expressing NHE3 (BCECF fluorescence, FLIPR); assay type: cell-based; conditions: LAP1 cells stably expressing NHE3; pH recovery after acidification; range 1 is % inhibition at 10 μM; read-out: Activity range (inhibitory effect on NHE3)
pIC50: −log10 of the molar value.
assay-readout: pIC50

The molecule CS(=O)(=O)c1ccc(O[C@H]2c3cc(Cl)cc(Cl)c3C[C@@H]2N2C[C@H]3CNC[C@H]3C2)cc1 , tested on sodium-proton exchanger of subtype 3 (NHE3) (Homo sapiens), showed pIC50 of > 6.00

The molecule Cc1nnc(C)n1-c1ccc(O[C@H]2c3c(Cl)sc(Cl)c3CC[C@@H]2N2CCCC2)cc1 (racemic) , tested on sodium-proton exchanger of subtype 3 (NHE3) (Homo sapiens), showed pIC50 of 5.00 to 6.00

The molecule N#Cc1ccc(O[C@H]2c3cc(Cl)cc(Cl)c3C[C@@H]2N2CC[C@H](O)C2)c(F)c1 , tested on sodium-proton exchanger of subtype 3 (NHE3) (Homo sapiens), showed pIC50 of 5.00 to 6.00

The molecule CC(=O)Nc1cccc(O[C@H]2c3ccccc3CC[C@@H]2N2CCC[C@@H](N)C2)c1 (racemic) , tested on sodium-proton exchanger of subtype 3 (NHE3) (Homo sapiens), showed pIC50 of 5.00 to 6.00
